system: Pseudomonas aeruginosa; assay: Antibacterial activity against Pseudomonas aeruginosa ATTC 27853 after 24 hrs by the disk diffusion method; format: functional; settings: Pseudomonas aeruginosa, ATTC 27853, 24 h
measured-property: MIC (µg/mL)

Recorded results for 4 molecules are shown here.
{"columns": ["smiles-entry", "measured-target", "MIC / µg/mL"],
 "data": [
  ["CSc1ccc(Cc2nnc3sc(-c4ccc(-c5cc(Cl)c(Cl)cc5Cl)o4)nn23)cc1", "Pseudomonas aeruginosa", 25],
  ["CSc1ccc(Cc2nnc3sc(-c4ccc(-c5ccc(C)cc5)o4)nn23)cc1", "Pseudomonas aeruginosa", 6],
  ["COc1ccc(-c2ccc(-c3nn4c(Cc5ccc(SC)cc5)nnc4s3)o2)cc1", "Pseudomonas aeruginosa", 12.5],
  ["CSc1ccc(Cc2nnc3sc(-c4ccc(-c5ccc(Cl)cc5)o4)nn23)cc1", "Pseudomonas aeruginosa", 6]
]}

[A] CSc1ccc(Cc2nnc3sc(-c4cc(F)c(Cl)cc4Cl)nn23)cc1
[B] COc1ccc(-c2ccc(-c3nn4c(Cc5ccc(SC)cc5)nnc4s3)o2)c([N+](=O)[O-])c1
[C] CSc1ccc(Cc2nnc3sc(-c4ccc(-c5ccccc5C(F)(F)F)o4)nn23)cc1
Q: Could you please order the items by MIC, going from the lowest number to the highest? When ranking, write the labels in the order the request describes.
Result: C, A, B
(C: 6 µg/mL, A: 12.5 µg/mL, B: 25 µg/mL)

[A] CSc1ccc(Cc2nnc3sc(-c4ccc([N+](=O)[O-])cc4Cl)nn23)cc1
[B] CSc1ccc(Cc2nnc3sc(Cc4ccccc4)nn23)cc1
Q: For A and B , which recorded MIC is lower? Indicate your choice by writing its label.
Result: A

---

test system: Escherichia coli; assay: Antibacterial activity against Escherichia coli ATTC 25922 after 24 hrs by the disk diffusion method; assay type: functional; details: Escherichia coli, ATTC 25922, 24 h
measured-property: MIC (µg/mL)

{"columns": ["smiles-entry", "reported-measurement"],
 "data": [
  ["CSc1ccc(Cc2nnc3sc(-c4ccc(-c5ccc(Cl)cc5[N+](=O)[O-])o4)nn23)cc1", 6]
]}

[a] CSc1ccc(Cc2nnc3sc(-c4cc(F)c(Cl)cc4Cl)nn23)cc1
[b] CSc1ccc(Cc2nnc3sc(-c4ccc(Br)cc4)nn23)cc1
[c] COc1ccc(-c2ccc(-c3nn4c(Cc5ccc(SC)cc5)nnc4s3)o2)cc1
Q: Could you please order the items by MIC, going from the lowest number to the highest? When ranking, write the labels in the order the request describes.
Result: a, c, b

[1] CSc1ccc(Cc2nnc3sc(-c4ccc(-c5ccc(C)cc5)o4)nn23)cc1
[2] CSc1ccc(Cc2nnc3sc(-c4ccc([N+](=O)[O-])cc4Cl)nn23)cc1
[3] CSc1ccc(Cc2nnc3sc(-c4ccc(-c5ccc([N+](=O)[O-])cc5)o4)nn23)cc1
Q: Could you please order the items by MIC, going from the lowest number to the highest? When ranking, write the labels in the order the request describes.
Result: 1, 2, 3

---

system: Pseudomonas aeruginosa; assay: Antibacterial activity against Pseudomonas aeruginosa ATTC 27853 after 24 hrs by the disk diffusion method; assay type: functional; conditions: Pseudomonas aeruginosa, ATTC 27853, 24 h
measured-property: MIC (µg/mL)

Recorded results for 3 compounds are shown here.
{"columns": ["smiles-entry", "reported-measurement"],
 "data": [
  ["CSc1ccc(Cc2nnc3sc(-c4ccc(O)cc4)nn23)cc1", 25],
  ["CSc1ccc(Cc2nnc3sc(-c4ccc(-c5ccc([N+](=O)[O-])cc5)o4)nn23)cc1", 25],
  ["CSc1ccc(Cc2nnc3sc(-c4cc(Cl)ccc4Cl)nn23)cc1", 25]
]}

[1] CSc1ccc(Cc2nnc3sc(-c4ccc(Br)cc4)nn23)cc1
[2] CSc1ccc(Cc2nnc3sc(-c4ccc([N+](=O)[O-])cc4)nn23)cc1
Q: For 1 and 2 , which recorded MIC is lower? Indicate your choice by writing its label.
Result: 2
